Biological target: PIM1 (Homo sapiens, UniProt P11309)
Sequence (P11309 whole entry): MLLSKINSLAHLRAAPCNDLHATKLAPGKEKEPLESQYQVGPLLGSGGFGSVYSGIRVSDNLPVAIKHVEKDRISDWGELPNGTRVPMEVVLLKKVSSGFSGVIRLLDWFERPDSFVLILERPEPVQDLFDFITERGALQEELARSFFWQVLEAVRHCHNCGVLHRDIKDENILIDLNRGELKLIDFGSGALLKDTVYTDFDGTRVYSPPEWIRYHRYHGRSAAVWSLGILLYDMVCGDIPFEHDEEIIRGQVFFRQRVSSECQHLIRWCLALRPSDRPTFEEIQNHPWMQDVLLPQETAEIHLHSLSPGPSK
Assay: Binding/displacement assay with FA or TGLI readout
Set-up: made in house
Conditions: KD, nM (PIM-1), TGLI or FA readout; mean ± SEM, N = 2
Square brackets hold non-standard residues; d marks the D form. Peptide text beside a SMILES is read from it. * marks the point of attachment. X3 = O=C(CCCCCNCc1nc2c(sc3cc(Br)cnc32)c(=O)[nH]1)*
Kd less than 2 nM is Met; Kd greater than or equal to 2 nM is Not met.

Examples with answers:
>>> answerlabel("CN1C(=CC=CC=CC2=[N+](CCCCCC(=O)NCCCC[C@@H](NC(=O)[C@@H](CCCNC(=N)N)NC(=O)CNC(=O)[C@@H](CCCNC(=N)N)NC(=O)[C@@H](CCCNC(=N)N)NC(=O)CCCCCCCNCc3nc4c(sc5ccc(Br)cc54)c(=O)[nH]3)C(N)=O)c3ccccc3C2(C)C)C(C)(C)c2ccccc21 [Compound 6]")
"Met"
>>> answerlabel("N=C(N)NCCC[C@@H](NC(=O)CNC(=O)[C@@H](CCCNC(=N)N)NC(=O)[C@@H](CCCNC(=N)N)NC(=O)CCCCc1cn(Cc2nc3c(sc4ccc(Br)cc43)c(=O)[nH]2)nn1)C(=O)N[C@H](CCCCN)C(N)=O [Compound 4, BBTP-Tap-(D-Arg)2-Gly-D-Arg-D-Lys-NH2]")
"Met"
>>> answerlabel("CN1C(=CC=CC=CC2=[N+](CCCCCC(=O)NCCCC[C@@H](NC(=O)[C@@H](CCCNC(=N)N)NC(=O)CNC(=O)[C@@H](CCCNC(=N)N)NC(=O)[C@@H](CCCNC(=N)N)NC(=O)CCCCc3cn(Cc4nc5c(sc6ccc(Br)cc65)c(=O)[nH]4)nn3)C(N)=O)c3ccccc3C2(C)C)C(C)(C)c2ccccc21 [Compound 7]")
"Not met"
>>> answerlabel("N=C(N)NCCC[C@@H](NC(=O)CNC(=O)[C@@H](CCCNC(=N)N)NC(=O)[C@@H](CCCNC(=N)N)NC(=O)Cn1cc(CNCc2nc3c(sc4ccc(Br)cc43)c(=O)[nH]2)nn1)C(=O)N[C@H](CCCCN)C(N)=O [Compound 3, BBTP-Amt-(D-Arg)2-Gly-D-Arg-D-Lys-NH2]")
"Met"
>>> answerlabel("N=C(N)NCCC[C@@H](NC(=O)CNC(=O)[C@@H](CCCNC(=N)N)NC(=O)[C@@H](CCCNC(=N)N)NC(=O)CCCCCCCNCc1nc2c(sc3cc(Br)cnc32)c(=O)[nH]1)C(=O)N[C@H](CCCCN)C(N)=O [Compound 1, BPTP-Aoc-(D-Arg)2-Gly-D-Arg-D-Lys-NH2]")
"Not met"
>>> answerlabel("CN(C)c1ccc2c(c1)Oc1cc(N(C)C)ccc1C21OC(=O)c2cc(C(=O)NCCCC[C@@H](NC(=O)[C@@H](CCCNC(=N)N)NC(=O)CNC(=O)[C@@H](CCCNC(=N)N)NC(=O)[C@@H](CCCNC(=N)N)NC(=O)CCCCc3cn(Cc4nc5c(sc6ccc(Br)cc65)c(=O)[nH]4)nn3)C(N)=O)ccc21 [Compound 8]")
"Not met"
>>> answerlabel("N=C(N)NCCC[C@@H](NC(=O)CNC(=O)[C@@H](CCCNC(=N)N)NC(=O)[C@@H](CCCNC(=N)N)NC(=O)CCCCCCCNCc1nc2c(sc3ccc(Br)cc32)c(=O)[nH]1)C(=O)N[C@H](CCCCN)C(N)=O [Compound 2, BBTP-Aoc-(D-Arg)2-Gly-D-Arg-D-Lys-NH2]")
"Met"
>>> answerlabel("N=C(N)NCCC[C@@H](NC(=O)CCCCCNCc1nc2c(sc3cc(Br)cnc32)c(=O)[nH]1)C(=O)N[C@H](CCCNC(=N)N)C(=O)N[C@H](CCCNC(=N)N)C(=O)N[C@H](CCCNC(=N)N)C(=O)N[C@H](CCCNC(=N)N)C(=O)N[C@H](CCCNC(=N)N)C(=O)N[C@H](CCCCN)C(N)=O [ARC-3126, BPTP-Ahx-(D-Arg)6-D-Lys-NH2] (X3-[dR][dR][dR][dR][dR][dR][dK]-NH2)")
"Met"

Ask | Hello, I'm reviewing records and need to know if Kd of N=C(N)NCCC[C@@H](NC(=O)CNC(=O)[C@@H](CCCNC(=N)N)NC(=O)[C@@H](CCCNC(=N)N)NC(=O)CCCCCCCNC(=O)[C@@H]1C[C@@H](O)CN1Cc1nc2c(sc3ccc(Br)cc32)c(=O)[nH]1)C(=O)N[C@H](CCCCN)C(N)=O [Compound 5] is below 2 nM. Could you check?
Reply | Not met

Ask | Now consider N=C(N)NCCC[C@@H](N)C(=O)N[C@H](CCCNC(=N)N)C(=O)NCC(=O)N[C@H](CCCNC(=N)N)C(=O)N[C@H](CCCCN)C(N)=O [PIM peptide, (D-Arg)2-Gly-D-Arg-D-Lys-NH2] and answer again.
Reply | Not met
